# TESTED SYSTEM: Histone deacetylase 2 (Homo sapiens, UniProt Q92769)
# Sequence (Q92769 whole entry): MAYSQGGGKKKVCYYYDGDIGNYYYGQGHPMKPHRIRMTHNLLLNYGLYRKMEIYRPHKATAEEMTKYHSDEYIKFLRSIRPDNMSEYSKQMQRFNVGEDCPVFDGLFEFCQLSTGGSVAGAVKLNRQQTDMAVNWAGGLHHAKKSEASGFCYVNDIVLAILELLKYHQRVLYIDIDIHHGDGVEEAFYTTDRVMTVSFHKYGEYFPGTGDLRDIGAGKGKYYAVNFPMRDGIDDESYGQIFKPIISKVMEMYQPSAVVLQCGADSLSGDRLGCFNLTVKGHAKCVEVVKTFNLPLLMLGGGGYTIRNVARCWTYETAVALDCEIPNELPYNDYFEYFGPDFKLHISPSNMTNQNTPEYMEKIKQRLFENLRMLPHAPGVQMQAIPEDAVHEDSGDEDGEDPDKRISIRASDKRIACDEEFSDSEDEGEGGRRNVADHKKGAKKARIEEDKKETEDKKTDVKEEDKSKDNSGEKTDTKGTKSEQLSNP
# EXPERIMENT SUMMARY: Inhibition of full-length recombinant human C-terminal GST tagged HDAC2 expressed in Sf9 insect cells using aminoluciferin peptide substrate at 100 nM preincubated for 3 hrs followed by substrate addition and measured after 30 mins by HDAC-Glo I/II chemiluminescence assay
# CONDITIONS: time 3.5 hrs
The entries below are paired with their reported inhibition.

STRUCTURE AS SMILES | inhibition, %
Nc1ccc(-c2cccnc2)cc1NC(=O)CCc1cn(CCc2ccccn2)nn1 | 0
Nc1ccc(-c2cccs2)cc1NC(=O)c1cccc(-c2cn(-c3ccc(O)cc3)nn2)c1 | 13
Nc1ccc(-c2ccccc2)cc1NC(=O)c1cn(CCCCCc2ccccc2)nn1 | 0
Nc1ccc(-c2ccsc2)cc1NC(=O)CCc1cn(CCN2CCc3ccccc3C2)nn1 | 18
Nc1ccc(-c2ccccc2)cc1NC(=O)CCc1cn(CCc2ccc(F)cc2)nn1 | 9
